Where these numbers come from: the supplement of paper PMC12667976

B1: library; numbered along this chain (parent)
chain: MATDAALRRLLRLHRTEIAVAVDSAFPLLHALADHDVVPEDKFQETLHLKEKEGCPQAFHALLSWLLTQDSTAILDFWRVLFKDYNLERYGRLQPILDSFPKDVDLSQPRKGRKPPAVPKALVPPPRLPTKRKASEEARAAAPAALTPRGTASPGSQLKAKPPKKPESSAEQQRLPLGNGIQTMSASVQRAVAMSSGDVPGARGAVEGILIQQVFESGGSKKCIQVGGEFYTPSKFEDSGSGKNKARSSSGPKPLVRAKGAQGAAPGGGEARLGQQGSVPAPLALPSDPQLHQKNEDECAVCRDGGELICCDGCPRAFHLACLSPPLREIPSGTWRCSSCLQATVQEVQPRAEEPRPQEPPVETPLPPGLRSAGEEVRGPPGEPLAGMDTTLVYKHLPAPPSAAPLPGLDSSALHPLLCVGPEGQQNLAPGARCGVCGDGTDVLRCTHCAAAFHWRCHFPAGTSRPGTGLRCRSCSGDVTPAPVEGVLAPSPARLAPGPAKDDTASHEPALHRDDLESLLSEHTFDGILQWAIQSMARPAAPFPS

variants of: B1; assay: AIRE transcriptional activation functional score (insulin promoter-GFP; nonsense median 0, synonymous median 1) (normalised score); higher = higher AIRE activity (more reporter activation); details: with insulin promoter-GFP reporter in HEK293
READOUT_TYPE: AIRE transcriptional activation functional score

Q342F :: 1.08
D76S :: 0.371
Q530V :: -0.295
R433G :: 0.748
A281T :: 0.867
Q276G :: 1.39
F453N :: 0.22
P95N :: 1.56
I309S :: 1.35
T364K :: 0.737
L323H :: 0.721
I74A :: 0.186
D389Q :: -0.15
I209E :: 0.5
I18Y :: -0.479
Q225C :: -0.424
A144I :: 0.989
